# protocol.notes: Pharmacokinetic profile of PND in rats with or without ibrutinib (UGTs inhibitor) pretreatment
# Format: in vivo, rat
# stated.conditions: rat, plasma, oral, PND i.g 3.5 mg/kg after i.p. Ibrutinib (100 mg/kg) pretreatment, Mean ± SD, n = 3
observable: AUC(0-inf) (ng·h/mL)
Express the result in ng·h/mL but write the number alone.

Item CC(=O)c1cc(C)c(O)c(Cc2[nH]c3ccccc3c2Cc2c(O)c(C)cc(C(C)=O)c2O)c1O [PND, Penindolone] has what recorded AUC(0-inf)? 5450

###

# protocol.notes: Pharmacokinetic profile of PND in rats with or without ibrutinib (UGTs inhibitor) pretreatment
# Assay type: in vivo, rat
# stated.conditions: rat, plasma, oral, 3.5 mg/kg, PND i.g 3.5 mg/kg after i.p. Ibrutinib (100 mg/kg) pretreatment, Mean ± SD, n = 3, read-out: Cmax-1
observable: Cmax
Quick note: unit goes after the number.

Please look up its Cmax: `CC(=O)c1cc(C)c(O)c(Cc2[nH]c3ccccc3c2Cc2c(O)c(C)cc(C(C)=O)c2O)c1O` 272 ng/mL

###

# protocol.notes: Pharmacokinetic profile of PND in rats with or without ibrutinib (UGTs inhibitor) pretreatment
# Type: in vivo, rat
# stated.conditions: rat, plasma, po, 3.5 mg/kg, PND i.g 3.5 mg/kg, Control, Mean ± SD, n = 3, read-out: Tmax-2
observable: Tmax (h)
Numeric only. Scale: h

Sample CC(=O)c1cc(C)c(O)c(Cc2[nH]c3ccccc3c2Cc2c(O)c(C)cc(C(C)=O)c2O)c1O [PND, Penindolone] — what was its Tmax? 6

Cited source: paper PMC9920254
